Tested on: NMC-G1 (Low Grade Glioma)
Test: Bliss excess, mean over the matrix (fraction); higher = more synergy
Measured parameter: Bliss excess
Form field (numeric): enter value without unit.

# Compound, Assay target, Bliss excess
data = [
    ("CN(CCO)CC[C@H](CSc1ccccc1)Nc1ccc(S(=O)(=O)NC(=O)c2ccc(N3CCC([C@@H](O)c4ccccc4-c4ccc(Cl)cc4)CC3)cc2)cc1S(=O)(=O)C(F)(F)F [AZD4320] + C[C@@H](Nc1cc(F)cc(F)c1)c1cc(C(=O)N(C)C)cc2c(=O)cc(N3CCOCC3)oc12 [AZD8186] (first compound max 1 µM, 7x7, partner max 3 µM)", "NMC-G1 (Low Grade Glioma)", 0.0254),
    ("Cc1cc2ncnn2cc1Nc1ncc2c(n1)n(C1CCOCC1)c(=O)n2C [AZD7648] + O=C(c1cc(Cc2n[nH]c(=O)c3ccccc23)ccc1F)N1CCN(C(=O)C2CC2)CC1 [Olaparib] (first compound max 10 µM, 7x7, partner max 10 µM)", "NMC-G1 (Low Grade Glioma)", -0.0538),
]

Which Bliss excess is reported for this compound? CN(CCO)CC[C@H](CSc1ccccc1)Nc1ccc(S(=O)(=O)NC(=O)c2ccc(N3CCC([C@@H](O)c4ccccc4-c4ccc(Cl)cc4)CC3)cc2)cc1S(=O)(=O)C(F)(F)F [AZD4320] + CCN(CCO)CCCOc1ccc2c(Nc3cc(CC(=O)Nc4cccc(F)c4)[nH]n3)ncnc2c1 [AZD2811] (first compound max 1 µM, 7x7, partner max 1 µM)
0.0047

Note, next up: CCc1c2c(nc3ccc(O)cc13)-c1cc3c(c(=O)n1C2)COC(=O)[C@]3(O)CC [SN-38] + CN(C)CCCOc1ccc(-c2ccc3ncc4c(c3c2)n(C2CCOCC2)c(=O)n4C)cn1 [AZD0156] (first compound max 0.3 µM, 7x7, partner max 1 µM)
-0.0202

###

System: MDA-MB-415 (Breast Carcinoma)
Experiment: Bliss excess, mean over the matrix (fraction); higher = more synergy
Each entry below lists one item and its recorded Bliss excess value.
Form field (numeric): enter value without unit.

Below: 2 molecules and their reported Bliss excess.
# Molecule, Assay target, Endpoint result
data = [
    ("COc1cc2ncnc(Nc3ccc(F)c(Cl)c3)c2cc1OCCCN1CCOCC1 [Gefitinib] + CC(C)n1c(=O)n(C)c2cnc3cc(F)c(-c4ccc(OCCCN5CCCCC5)nc4)cc3c21 [AZD1390] (first compound max 10 µM, 7x7, partner max 0.3 µM)", "MDA-MB-415 (Breast Carcinoma)", -0.103),
    ("C[C@@H](Nc1cc(F)cc(F)c1)c1cc(C(=O)N(C)C)cc2c(=O)cc(N3CCOCC3)oc12 [AZD8186] + CC(=O)c1c(C)c2cnc(Nc3ccc(N4CCNCC4)cn3)nc2n(C2CCCC2)c1=O [Palbociclib] (first compound max 10 µM, 7x7, partner max 10 µM)", "MDA-MB-415 (Breast Carcinoma)", -0.0443),
]

// below: Bliss excess requested for another molecule
Which Bliss excess is reported for this molecule? COc1cccc(OCCCN)c1-c1cc(Nc2cnc(C#N)cn2)n[nH]1 [Prexasertib] + O=C(c1cc(Cc2n[nH]c(=O)c3ccccc23)ccc1F)N1CCN(C(=O)C2CC2)CC1 [Olaparib] (first compound max 1 µM, 7x7, partner max 10 µM)
0.0074

###

System: UACC-257 (Melanoma)
Assay: combination Emax (second highest fraction inhibited in the dose matrix, 72 h); higher = more inhibition; extreme values may be limits of the assay
Measured parameter: combination Emax
Form field (numeric): enter value without unit.

# Compound, combination Emax
records = [
    ("Cc1cc2ncnn2cc1Nc1ncc2c(n1)n(C1CCOCC1)c(=O)n2C [AZD7648] + CCN(CCO)CCCOc1ccc2c(Nc3cc(CC(=O)Nc4cccc(F)c4)[nH]n3)ncnc2c1 [AZD2811] (first compound max 10 µM, 7x7, partner max 1 µM)", 0.278),
    ("Cc1cc2ncnn2cc1Nc1ncc2c(n1)n(C1CCOCC1)c(=O)n2C [AZD7648] + C[C@@H]1COCCN1C2=NC(=NC(=C2)C3(CC3)[S@](=N)(=O)C)C4=C5C=CNC5=NC=C4 [AZD6738] (first compound max 10 µM, 7x7, partner max 10 µM)", 0.15),
    ("NC1(C(=O)N[C@@H](CCO)c2ccc(Cl)cc2)CCN(c2ncnc3[nH]ccc23)CC1 [Capivasertib] + CCN(CCO)CCCOc1ccc2c(Nc3cc(CC(=O)Nc4cccc(F)c4)[nH]n3)ncnc2c1 [AZD2811] (first compound max 10 µM, 7x7, partner max 1 µM)", 0.394),
]

// below: combination Emax requested for another compound
Which combination Emax is reported for this compound? C=CCn1c(=O)c2cnc(Nc3ccc(N4CCN(C)CC4)cc3)nc2n1-c1cccc(C(C)(C)O)n1 [AZD1775] + C1CN(CCC1(C(=O)N[C@@H](CCO)C2=CC=C(C=C2)Cl)N)C3=NC=NC4=C3C=CN4 [Capivasertib] (first compound max 3 µM, partner max 3 µM)
0.455

###

Test system: NCI-H1876 (Small Cell Lung Carcinoma)
Assay: combination Emax (second highest fraction inhibited in the dose matrix, 72 h); higher = more inhibition; extreme values may be limits of the assay
Each entry below lists one item and its recorded combination Emax value.
Form field (numeric): enter value without unit.

# Compound, combination Emax
rows = [
    ("C=CCn1c(=O)c2cnc(Nc3ccc(N4CCN(C)CC4)cc3)nc2n1-c1cccc(C(C)(C)O)n1 [AZD1775] + C1CN(CCC1(C(=O)N[C@@H](CCO)C2=CC=C(C=C2)Cl)N)C3=NC=NC4=C3C=CN4 [Capivasertib] (first compound max 3 µM, partner max 3 µM)", 0.956),
    ("Cc1c2c(nn1C)CSCc1cc(n(C)n1)CSc1cc(c3ccccc3c1)OCCCc1c(C(=O)O)n(C)c3c-2c(Cl)ccc13 [AZD5991] + CCN(CCO)CCCOc1ccc2c(Nc3cc(CC(=O)Nc4cccc(F)c4)[nH]n3)ncnc2c1 [AZD2811] (first compound max 1 µM, 7x7, partner max 1 µM)", 0.998),
    ("COc1nnc2ccc(N3CCC(c4ccc(OCCN5CCN(C)C(=O)[C@H]5C)cc4)CC3)nn12 [AZD5153] + C=CCn1c(=O)c2cnc(Nc3ccc(N4CCN(C)CC4)cc3)nc2n1-c1cccc(C(C)(C)O)n1 [AZD1775] (first compound max 1 µM, partner max 1 µM)", 0.99),
    ("CN(C)CCCOc1ccc(-c2ccc3ncc4c(c3c2)n(C2CCOCC2)c(=O)n4C)cn1 [AZD0156] + C=CCn1c(=O)c2cnc(Nc3ccc(N4CCN(C)CC4)cc3)nc2n1-c1cccc(C(C)(C)O)n1 [AZD1775] (first compound max 1 µM, partner max 1 µM)", 0.982),
    ("COc1nnc2ccc(N3CCC(c4ccc(OCCN5CCN(C)C(=O)[C@H]5C)cc4)CC3)nn12 [AZD5153] + CCN(CCO)CCCOc1ccc2c(Nc3cc(CC(=O)Nc4cccc(F)c4)[nH]n3)ncnc2c1 [AZD2811] (first compound max 1 µM, 7x7, partner max 1 µM)", 0.708),
]

Which combination Emax is reported for this compound? NC1(C(=O)N[C@@H](CCO)c2ccc(Cl)cc2)CCN(c2ncnc3[nH]ccc23)CC1 [Capivasertib] + COc1nnc2ccc(N3CCC(c4ccc(OCCN5CCN(C)C(=O)[C@H]5C)cc4)CC3)nn12 [AZD5153] (first compound max 10 µM, 7x7, partner max 1 µM)
0.579

Note, next up: CN(CCO)CC[C@H](CSc1ccccc1)Nc1ccc(S(=O)(=O)NC(=O)c2ccc(N3CCC([C@@H](O)c4ccccc4-c4ccc(Cl)cc4)CC3)cc2)cc1S(=O)(=O)C(F)(F)F [AZD4320] + C[C@@H]1COCCN1C2=NC(=NC(=C2)C3(CC3)[S@](=N)(=O)C)C4=C5C=CNC5=NC=C4 [AZD6738] (first compound max 1 µM, 7x7, partner max 10 µM)
1

Note, next up: CC1(C)CCC(CN2CCN(c3ccc(C(=O)NS(=O)(=O)c4ccc(NCC5CCOCC5)c([N+](=O)[O-])c4)c(Oc4cnc5[nH]ccc5c4)c3)CC2)=C(c2ccc(Cl)cc2)C1 [Venetoclax] + COc1cc(Nc2ncc3c(n2)-c2ccc(Cl)cc2C(c2c(F)cccc2OC)=NC3)ccc1C(=O)O [Alisertib] (first compound max 1 µM, 7x7, partner max 10 µM)
0.866

###

Test system: HT-1080 (Other Solid Carcinomas)
Assay: combination Emax (second highest fraction inhibited in the dose matrix, 72 h); higher = more inhibition; extreme values may be limits of the assay
Each entry below lists one item and its recorded combination Emax value.
Form field (numeric): enter value without unit.

# Compound, combination Emax
data = [
    ("CC1(C)CCC(CN2CCN(c3ccc(C(=O)NS(=O)(=O)c4ccc(NCC5CCOCC5)c([N+](=O)[O-])c4)c(Oc4cnc5[nH]ccc5c4)c3)CC2)=C(c2ccc(Cl)cc2)C1 [Venetoclax] + CN(C)CCCOc1ccc(-c2ccc3ncc4c(c3c2)n(C2CCOCC2)c(=O)n4C)cn1 [AZD0156] (first compound max 1 µM, 7x7, partner max 1 µM)", 0.105),
]

Which combination Emax is reported for this compound? COc1nnc2ccc(N3CCC(c4ccc(OCCN5CCN(C)C(=O)[C@H]5C)cc4)CC3)nn12 [AZD5153] + C=CCn1c(=O)c2cnc(Nc3ccc(N4CCN(C)CC4)cc3)nc2n1-c1cccc(C(C)(C)O)n1 [AZD1775] (first compound max 1 µM, partner max 1 µM)
0.522
